Measured values drawn from patent US6645983B1 for this set.

Tested on: T-47D
Assay: MTT test, cytotoxic activity on non-clonogenic cell lines
Format: cell-based
Details: Homo sapiens, T47D; 10^−5 M, 72 hours of incubation, control condition = 100%, mean value; read-out: mean optical density as percentage of control, T-47D
Procedure: The principle of the MTT test is based on the mitochondrial reduction, by the metabolically active live cells, of the yellow-colored product MTT (3-(4,5-dimethylthiazol-2-yl)-2,5-diphenyltetrazolium bromide) to a blue-colored product, formazan. The amount of formazan thus obtained is directly proportional to the amount of live cells present in the culture well(s). This amount of formazan is measured by spectrophotometry. […]
Decision: viability at 10 µM beneath 70% gives true; viability at 10 µM meeting or exceeding 70% gives false.

COc1ccc(-c2cn(C)c3cc(OC)cc(N4CCCC4)c3c2=O)cc1	false
O=c1c(-c2ccccc2)c[nH]c2ccccc12 [CRL8326, 3-Phenyl-1,4-dihydro-4-quinolinone]	true
COc1ccc2c(=O)c(-c3ccccc3)c[nH]c2c1	true
CCN(CC)C(=O)Cn1cc(-c2ccc(OC)cc2)c(=O)c2c(OC)cc(OC)cc21	false
COc1ccc(-c2c[nH]c3cc(OC)cc(OC)c3c2=O)cc1	false
COc1ccc(-c2c[nH]c3c(OC)cccc3c2=O)cc1	false
COc1ccc(-c2cn(CC#N)c3cc(OC)cc(OC)c3c2=O)cc1	true

Lab note: next compound to report on.
Exercise: Decide: viability at 10 µM of COc1ccc(-c2cn(CC#N)c3c(OC)ccc(OC)c3c2=O)cc1 strictly below 70%?
Key: false

###

test system: U-87MG; test: MTT test, cytotoxic activity on non-clonogenic cell lines; format: cell-based; conditions: Homo sapiens, U-87 MG; 10^−5 M, 72 hours of incubation, control condition = 100%, mean value; read-out: mean optical density as percentage of control, U-87MG
Decision: viability at 10 µM beneath 90% gives class 1; viability at 10 µM meeting or exceeding 90% gives class 0.

COc1ccc(OC)c2c1c(=O)c(-c1ccccc1)cn2C	class 1
COc1ccc(-c2cn(CC#N)c3c(OC)ccc(OC)c3c2=O)cc1	class 1
COc1ccc(-c2cn(CC#N)c3cc(OC)cc(OC)c3c2=O)cc1	class 0
COc1cccc2c(=O)c(-c3ccccc3)c[nH]c12	class 1
CCc1ccc(OC)c2c1c(=O)c(-c1ccc(OC)cc1)cn2C	class 1

Exercise: Decide: viability at 10 µM of COc1ccc(-c2cn(C)c3ccc(OC)cc3c2=O)cc1 strictly below 90%?
Key: class 1

Exercise: Decide: viability at 10 µM of COc1cc(OC)c2c(=O)c(-c3ccccc3)c[nH]c2c1 strictly below 90%?
Key: class 0

###

test system: U-373MG; experiment: MTT test, cytotoxic activity on non-clonogenic cell lines; format: cell-based; conditions: Homo sapiens, U373 MG; 10^−5 M, 72 hours of incubation, control condition = 100%, mean value; read-out: mean optical density as percentage of control, U-373MG
VALUE KIND: viability at 10 µM (%)
API: value field is a number in %; no unit string.

Solved cases below.
CCOC(=O)Cn1cc(-c2ccc(OC)cc2)c(=O)c2c(OC)ccc(OC)c21	91.8
COc1cc2[nH]cc(-c3ccccc3)c(=O)c2cc1OC	97.7
COc1ccc(-c2cn(C)c3cc(OC)cc(-c4ccccc4)c3c2=O)cc1	73.5

Consider COc1ccc(-c2cn(C)c3c(OC)ccc(O)c3c2=O)cc1 . Its measured viability at 10 µM is 90.2

Consider COc1ccc(-c2cn(CCCN(C)C)c3cc(OC)cc(OC)c3c2=O)cc1 . Its measured viability at 10 µM is 96

###

test system: T24; assay: MTT test, cytotoxic activity on non-clonogenic cell lines; type: cell-based; details: Homo sapiens, T-24; T24; 10^−5 M; 72 hours incubation; MTT; mean value; read-out: mean optical density, expressed as percentage relative to the mean optical density under the control condition (100%)
VALUE KIND: viability at 10 µM (%)
API: value field is a number in %; no unit string.

COc1ccc(-c2cn(CCC#N)c3cc(OC)ccc3c2=O)cc1	94.6

Consider COc1ccc(-c2cn(CCCC#N)c3cc(OC)ccc3c2=O)cc1 . Its measured viability at 10 µM is 101

Consider COc1ccc(-c2cn(C)c3cc(OC)cc(NCCN(C)C)c3c2=O)cc1 . Its measured viability at 10 µM is 111

Consider COc1ccc(-c2cn(C)c3cc(OC)cc(N4CCN(C)CC4)c3c2=O)cc1 . Its measured viability at 10 µM is 99.2

Consider CCN(CC)C(=O)Cn1cc(-c2ccc(OC)cc2)c(=O)c2ccc(OC)cc21 . Its measured viability at 10 µM is 69.5

###

test system: SW1088; test: MTT test, cytotoxic activity on non-clonogenic cell lines; format: cell-based; settings: Homo sapiens, 10^−5 M, 72 hours of incubation, control condition = 100%, mean value, read-out: mean optical density as percentage of control, SW1088
Decision: viability at 10 µM beneath 80% gives MET; viability at 10 µM meeting or exceeding 80% gives NOT MET.

Examples from the recorded data:
CCN(CC)C(=O)Cn1cc(-c2ccc(OC)cc2)c(=O)c2c(OC)cc(OC)cc21	NOT MET
COc1cc2[nH]cc(-c3ccccc3)c(=O)c2cc1OC	NOT MET

Exercise: Decide: viability at 10 µM of CCc1ccc(OC)c2c1c(=O)c(-c1ccc(OC)cc1)cn2C strictly below 80%?
Key: NOT MET

Exercise: Decide: viability at 10 µM of COc1ccc(-c2cn(C)c3cc(OC)cc(OC)c3c2=O)cc1 strictly below 80%?
Key: NOT MET

Exercise: Decide: viability at 10 µM of COc1ccc2c(=O)c(-c3ccccc3)c[nH]c2c1 strictly below 80%?
Key: NOT MET

Exercise: Decide: viability at 10 µM of COc1ccc(-c2cn(C)c3c(OC)ccc(-c4ccccc4)c3c2=O)cc1 strictly below 80%?
Key: MET

Exercise: Decide: viability at 10 µM of CCOC(=O)Cn1cc(-c2ccc(OC)cc2)c(=O)c2c(OC)ccc(OC)c21 strictly below 80%?
Key: MET

Exercise: Decide: viability at 10 µM of COc1ccc(-c2cn(C)c3cc(OC)cc(NCc4ccccc4)c3c2=O)cc1 strictly below 80%?
Key: NOT MET

###

Consider the following compounds and their measured melting point readings.

Solved cases below.
COc1ccc(-c2c[nH]c3cc(OC)cc(O)c3c2=O)cc1	236 to 237 °C
CCN(CC)C(=O)CCn1cc(-c2ccc(OC)cc2)c(=O)c2ccc(OC)cc21	158 to 159 °C
COc1ccc(-c2cnc3c(OC)ccc(OC)c3c2OCCCC#N)cc1	117 to 118 °C
CC(=O)Oc1ccc(-c2cn(C)c3cc(OC(C)=O)cc(OC(C)=O)c3c2=O)cc1	219 to 220 °C

Consider C=CCOc1c(-c2ccc(OC)cc2)cnc2cc(OC)cc(OC)c12 . Its measured melting point is 169 to 170 °C

###

test system: LoVo; assay: MTT test, cytotoxic activity on non-clonogenic cell lines; assay type: cell-based; conditions: Homo sapiens, 10^−5 M, 72 hours incubation, MTT, mean value, read-out: mean optical density, expressed as percentage relative to the mean optical density under the control condition (100%)
Consider the following molecules and their measured viability at 10 µM readings.
API: value field is a number in %; no unit string.

CCN(CC)C(=O)Cn1cc(-c2ccc(OC)cc2)c(=O)c2ccc(OC)cc21 [CRL8466]	98.9
CCOC(=O)Cn1cc(-c2ccc(OC)cc2)c(=O)c2ccc(OC)cc21 [CRL8465]	110
CCOC(=O)CCn1cc(-c2ccc(OC)cc2)c(=O)c2ccc(OC)cc21 [CRL8468]	97.2
CC(=O)Oc1ccc(-c2cn(C)c3c(OC(C)=O)ccc(OC(C)=O)c3c2=O)cc1 [CRL8460]	25.5
CCN(CC)c1cc(OC)cc2c1c(=O)c(-c1ccc(OC)cc1)cn2C [CRL8437]	105

Consider COc1ccc(-c2cn(C)c3cc(OC)cc(NCCN(C)C)c3c2=O)cc1 [CRL8462] . Its measured viability at 10 µM is 84.6

Consider COc1ccc(-c2cn(CCCC#N)c3cc(OC)ccc3c2=O)cc1 [CRL8470] . Its measured viability at 10 µM is 86.6

###

system: A-427; test: MTT test, cytotoxic activity on non-clonogenic cell lines; assay type: cell-based; settings: Homo sapiens, 10^−5 M, 72 hours of incubation, control condition = 100%, mean value, read-out: mean optical density as percentage of control, A-427
Consider the following compounds and their measured viability at 10 µM readings.
API: value field is a number in %; no unit string.

COc1ccc(-c2cn(C)c3c(OC)ccc(O)c3c2=O)cc1	49.7
COc1ccc(-c2cn(CCN(C)C)c3c(OC)ccc(OC)c3c2=O)cc1	89.2
COc1ccc(OC)c2c1c(=O)c(-c1ccccc1)cn2C	92.1
COc1ccc2c(c1)c(=O)c(-c1ccccc1)cn2C	94.2

Could you now look at the following compound, please?
Consider COc1ccc(-c2cn(CC#N)c3cc(OC)cc(OC)c3c2=O)cc1 . Its measured viability at 10 µM is 93.9
